- SYSTEM: LC3B Q26K/H27Y/E62Q (recombinant, BLI) (human, UniProt Q9GZQ8 1-120, Q26K | H27Y | E62Q)
- METHOD_NOTES: BLI
Ends that are not written are not given here.
MEASURED_METRIC: Kd (µM)
Just the number please, in µM, no unit attached.

{"BINDER": "GGSSGNTHDDFVMIDFKPAFSKDD (also: biotin, position not given here) [ATG13 LIR peptide (biotinylated, BLI)]", "Kd, µM": 3.1}

Now examine the next entry.
Prompt: Endpoint output: Kd of SKDSSCDTDDFVMVPAQFPGDLVA (also: biotin, position not given here) [ULK1 LIR peptide (biotinylated, BLI)] . Value?
Completion: 5.6
